target: menin (Homo sapiens, UniProt O00255, T541A); construct: Menin (a.a. 1-610-6×his tag); test: Menin/MLL homogenous time-resolved fluorescence (HTRF) assay; type: binding; conditions: location 2; read-out: (2) location 2 Menin HTRF assay (IC50 (nM))
Sequence (O00255 with tags, fused parts or gaps T541A): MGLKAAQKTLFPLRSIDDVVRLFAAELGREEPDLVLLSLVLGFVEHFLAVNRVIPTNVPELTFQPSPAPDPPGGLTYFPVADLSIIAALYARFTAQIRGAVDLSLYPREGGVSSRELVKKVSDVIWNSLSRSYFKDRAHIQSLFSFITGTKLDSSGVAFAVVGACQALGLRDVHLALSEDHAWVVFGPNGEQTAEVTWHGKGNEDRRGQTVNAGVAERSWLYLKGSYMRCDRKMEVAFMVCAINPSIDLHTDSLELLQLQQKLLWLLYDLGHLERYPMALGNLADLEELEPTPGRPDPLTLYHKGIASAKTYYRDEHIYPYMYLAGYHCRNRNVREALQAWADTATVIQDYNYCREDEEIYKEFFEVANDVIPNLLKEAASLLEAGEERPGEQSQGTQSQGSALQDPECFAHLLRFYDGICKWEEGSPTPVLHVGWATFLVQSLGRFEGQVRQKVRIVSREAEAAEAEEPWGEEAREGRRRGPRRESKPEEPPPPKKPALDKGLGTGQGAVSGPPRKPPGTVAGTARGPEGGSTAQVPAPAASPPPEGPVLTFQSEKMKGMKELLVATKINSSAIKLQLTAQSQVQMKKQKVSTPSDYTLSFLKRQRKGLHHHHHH
Reported endpoint: log10 IC50 (log10 of the value in nM)

- Compound: "N#CCc1ccc(C(=O)NC2CC3(CCN(c4ncnc5sc(CC(F)(F)F)cc45)C3)C2)cc1 (single isomer, unassigned) [Compound 11]"
  log10 IC50: 3.58
- Compound: "FC(F)(F)Cc1cc2c(N3CCC4(CC(Nc5ccccc5Cl)C4)C3)ncnc2s1 (mixture of isomers)"
  log10 IC50: 2.30
- Compound: "CNC(=O)c1ccc(NC2CC3(CCN(c4ncnc5sc(CC(F)(F)F)cc45)C3)C2)cc1 (mixture of isomers) [Compound 329]"
  log10 IC50: 0.30
- Compound: "FC(F)(F)Cc1cc2c(N3CCC4(CC(Nc5ccc6cc[nH]c6c5)C4)C3)ncnc2s1 (single isomer, unassigned) [Compound 312]"
  log10 IC50: 2.13
- Compound: "N#CCc1ccc(NC2CCC3(C2)CN(c2nc(N)nc4sc(CC(F)(F)F)cc24)C3)cc1 (single isomer, unassigned) [Compound 389]"
  log10 IC50: 1.98
- Compound: "FC(F)(F)Cc1cc2c(N3CCC4(CC(Nc5ccc6cc(C(F)(F)F)[nH]c6c5)C4)C3)ncnc2s1 (mixture of isomers)"
  log10 IC50: 1.43
- Compound: "O=c1[nH]c2cc(CNC3CCC4(C3)CN(c3ncnc5sc(CC(F)(F)F)cc35)C4)ccc2o1 (stereo not shown) [Compound 16]"
  log10 IC50: 0.30
- Compound: "O=c1[nH]c2ccc(CNC3CCC4(C3)CN(c3ncnc5sc(CC(F)(F)F)cc35)C4)cc2[nH]1 (single isomer, unassigned) [Compound 108]"
  log10 IC50: 0.72
- Compound: "O=c1[nH]c2ccc(CNC3CCC4(C3)CN(c3ncnc5sc(CC(F)(F)F)cc35)C4)cc2o1 (single isomer, unassigned) [Compound 55]"
  log10 IC50: 0.85
- Compound: "COCCNC(=O)c1ccc(NC2CC3(CCN(c4ncnc5sc(CC(F)(F)F)cc45)C3)C2)cc1 (single isomer, unassigned) [Compound 86]"
  log10 IC50: 1.96
- Compound: "Cc1cccc(NC2CC3(CCN(c4ncnc5sc(CC(F)(F)F)cc45)C3)C2)c1 (mixture of isomers)"
  log10 IC50: 2.60
- Compound: "CN(C)CCNC(=O)c1ccc(NC2CC3(CCN(c4ncnc5sc(CC(F)(F)F)cc45)C3)C2)nc1 (single isomer, unassigned) [Compound 254]"
  log10 IC50: 0.45

---

target: menin (Homo sapiens, UniProt O00255, T541A); construct: Menin (a.a. 1-610-6×his tag); test: Menin/MLL homogenous time-resolved fluorescence (HTRF) assay; assay type: binding; conditions: location 2; read-out: (2) location 2 Menin HTRF assay (IC50 (nM))

- Compound: "O=C(NCCO)c1ccc(NC2CC3(CCN(c4ncnc5sc(CC(F)(F)F)cc45)C3)C2)cc1 (single isomer, unassigned) [Compound 84]"
  Qualifier operator: "="
  IC50 (nM): 2.3
- Compound: "CC(C)N(C)CC1CC2(CCN(c3ncnc4sc(CC(F)(F)F)cc34)C2)C1 (centres unmarked) [Compound 40]"
  Qualifier operator: "="
  IC50 (nM): 90.9
- Compound: "CNc1nc(N2CCC3(CC(Nc4ccc5[nH]c(=O)[nH]c5c4)C3)C2)c2cc(CC(F)(F)F)sc2n1 (single isomer, unassigned) [Compound 394]"
  Qualifier operator: "="
  IC50 (nM): 13.8
- Compound: "N#CCc1ccc(C(=O)NC2CCC3(CCN(c4ncnc5sc(CC(F)(F)F)cc45)C3)C2)cc1 (centres unmarked) [Compound 126]"
  Qualifier operator: ">"
  IC50 (nM): 10000
- Compound: "N#Cc1ccc(NC2CC3(CCN(c4ncnc5sc(CC(F)(F)F)cc45)C3)C2)nc1 (single isomer, unassigned) [Compound 175]"
  Qualifier operator: "="
  IC50 (nM): 33.4
- Compound: "CNC(=O)c1ccc(N[C@@H]2CC[C@]3(CCN(c4ncnc5sc(CC(F)(F)F)cc45)C3)C2)cc1 (stereo in doubt) [Compound 136]"
  Qualifier operator: "="
  IC50 (nM): 409
- Compound: "FC(F)(F)Cc1cc2c(N3CCC4(CC(Nc5ccccn5)C4)C3)ncnc2s1 (centres unmarked) [Compound 151]"
  Qualifier operator: "="
  IC50 (nM): 31
- Compound: "Nc1nc(N2CCC3(CC(Nc4ccc5[nH]c(=O)[nH]c5c4)C3)C2)c2cc(CC(F)(F)F)sc2n1 (single isomer, unassigned) [Compound 383]"
  Qualifier operator: "="
  IC50 (nM): 70.8
- Compound: "CN(C)CC1CC2(CCN(c3ncnc4sc(CC(F)(F)F)cc34)C2)C1 (mixture of isomers) [Compound 196]"
  Qualifier operator: "="
  IC50 (nM): 133
- Compound: "FC(F)(F)Cc1cc2c(N3CC4(CCC(Nc5ccc(-c6cn[nH]c6)cc5)C4)C3)ncnc2s1 (centres unmarked) [Compound 302]"
  Qualifier operator: "="
  IC50 (nM): 509
- Compound: "CNC(=O)c1ccc(NC2CC3(CCN(c4ncnc5sc(CC(F)(F)F)cc45)C3)C2)cc1C (centres unmarked) [Compound 237]"
  Qualifier operator: "="
  IC50 (nM): 489
- Compound: "CNc1nc(N2CCC3(CC(NCc4ccccc4)C3)C2)c2cc(CC(F)(F)F)sc2n1 (centres unmarked) [Compound 61]"
  Qualifier operator: "="
  IC50 (nM): 2.4
- Compound: "Cn1ncc2ccc(NC3CC4(CCN(c5ncnc6sc(CC(F)(F)F)cc56)C4)C3)cc21 (mixture of isomers) [Compound 206]"
  Qualifier operator: "="
  IC50 (nM): 224
- Compound: "CNC(=O)c1cnc(NC2CC3(CCN(c4ncnc5sc(CC(F)(F)F)cc45)C3)C2)cn1 (single isomer, unassigned) [Compound 419]"
  Qualifier operator: "="
  IC50 (nM): 10.8

---

Readings of IC50 for the listed molecules
biological target: menin (Homo sapiens, UniProt O00255, T541A); construct: Menin (a.a. 1-610-6×his tag); test: Menin/MLL homogenous time-resolved fluorescence (HTRF) assay; format: binding; conditions: location 2; read-out: (2) location 2 Menin HTRF assay (IC50 (nM))
Reported endpoint: IC50 (nM)

- Molecule: "FC(F)(F)Cc1cc2c(N3CC4(CC[C@@H](Nc5ccc(-c6cn[nH]c6)cc5)C4)C3)ncnc2s1 (single isomer, unassigned)"
  Reported endpoint: "IC50"
  Measured: 521
- Molecule: "Cn1c(=O)[nH]c2cc(NC3CC4(CCN(c5ncnc6sc(CC(F)(F)F)cc56)C4)C3)ccc21 (single isomer, unassigned) [Compound 91]"
  Reported endpoint: "IC50"
  Measured: 166
- Molecule: "O=S(=O)(NC1CC2(CCN(c3ncnc4sc(CC(F)(F)F)cc34)C2)C1)c1ccc(C(F)(F)F)cc1 (mixture of isomers)"
  Reported endpoint: "IC50"
  Measured: 221
- Molecule: "Cc1nc(N2CCC3(CC(Nc4ccc(CC#N)cc4)C3)C2)c2cc(CC(F)(F)F)sc2n1 (mixture of isomers)"
  Reported endpoint: "IC50"
  Measured: 16.4
- Molecule: "CN1CCN(Cc2cc(NC3CC4(CCN(c5ncnc6sc(CC(F)(F)F)cc56)C4)C3)ccc2C#N)CC1 (mixture of isomers)"
  Reported endpoint: "IC50"
  Measured: 22.7
- Molecule: "N#Cc1ccc(NC2CC3(CCN(c4ncnc5sc(CC(F)(F)F)cc45)C3)C2)cn1 (mixture of isomers)"
  Reported endpoint: "IC50"
  Measured: 18.7

---

Readings of log10 IC50 for the listed molecules
target: menin (Homo sapiens, UniProt O00255, T541A); construct: Menin (a.a. 1-610-6×his tag); assay: Menin/MLL homogenous time-resolved fluorescence (HTRF) assay; assay type: binding; conditions: location 2; read-out: (2) location 2 Menin HTRF assay (IC50 (nM))
Reported endpoint: log10 IC50 (log10 of the value in nM)

- Molecule: "CNc1nc(N2CCC3(CC(Nc4ccc5oc(=O)[nH]c5c4)C3)C2)c2cc(CC(F)(F)F)sc2n1 (mixture of isomers) [Compound 396]"
  log10 IC50: 1.25
- Molecule: "CS(=O)(=O)Nc1ccc(NC2CC3(CCN(c4ncnc5sc(CC(F)(F)F)cc45)C3)C2)cc1 (mixture of isomers)"
  log10 IC50: 0.69
- Molecule: "FC(F)(F)Cc1cc2c(N3CC[C@@]4(CC[C@@H](NCc5ccccc5)C4)C3)ncnc2s1 (single isomer, unassigned)"
  log10 IC50: 1.00
- Molecule: "O=c1ccc(NC2CC3(CCN(c4ncnc5sc(CC(F)(F)F)cc45)C3)C2)c[nH]1 (mixture of isomers)"
  log10 IC50: 2.17
- Molecule: "FC(F)(F)Cc1cc2c(N3CCC4(CC(Nc5cccnc5)C4)C3)ncnc2s1 (single isomer, unassigned) [Compound 152]"
  log10 IC50: 2.46
